Target: Proto-oncogene tyrosine-protein kinase receptor Ret (Homo sapiens, UniProt P07949)
Sequence (P07949 whole entry): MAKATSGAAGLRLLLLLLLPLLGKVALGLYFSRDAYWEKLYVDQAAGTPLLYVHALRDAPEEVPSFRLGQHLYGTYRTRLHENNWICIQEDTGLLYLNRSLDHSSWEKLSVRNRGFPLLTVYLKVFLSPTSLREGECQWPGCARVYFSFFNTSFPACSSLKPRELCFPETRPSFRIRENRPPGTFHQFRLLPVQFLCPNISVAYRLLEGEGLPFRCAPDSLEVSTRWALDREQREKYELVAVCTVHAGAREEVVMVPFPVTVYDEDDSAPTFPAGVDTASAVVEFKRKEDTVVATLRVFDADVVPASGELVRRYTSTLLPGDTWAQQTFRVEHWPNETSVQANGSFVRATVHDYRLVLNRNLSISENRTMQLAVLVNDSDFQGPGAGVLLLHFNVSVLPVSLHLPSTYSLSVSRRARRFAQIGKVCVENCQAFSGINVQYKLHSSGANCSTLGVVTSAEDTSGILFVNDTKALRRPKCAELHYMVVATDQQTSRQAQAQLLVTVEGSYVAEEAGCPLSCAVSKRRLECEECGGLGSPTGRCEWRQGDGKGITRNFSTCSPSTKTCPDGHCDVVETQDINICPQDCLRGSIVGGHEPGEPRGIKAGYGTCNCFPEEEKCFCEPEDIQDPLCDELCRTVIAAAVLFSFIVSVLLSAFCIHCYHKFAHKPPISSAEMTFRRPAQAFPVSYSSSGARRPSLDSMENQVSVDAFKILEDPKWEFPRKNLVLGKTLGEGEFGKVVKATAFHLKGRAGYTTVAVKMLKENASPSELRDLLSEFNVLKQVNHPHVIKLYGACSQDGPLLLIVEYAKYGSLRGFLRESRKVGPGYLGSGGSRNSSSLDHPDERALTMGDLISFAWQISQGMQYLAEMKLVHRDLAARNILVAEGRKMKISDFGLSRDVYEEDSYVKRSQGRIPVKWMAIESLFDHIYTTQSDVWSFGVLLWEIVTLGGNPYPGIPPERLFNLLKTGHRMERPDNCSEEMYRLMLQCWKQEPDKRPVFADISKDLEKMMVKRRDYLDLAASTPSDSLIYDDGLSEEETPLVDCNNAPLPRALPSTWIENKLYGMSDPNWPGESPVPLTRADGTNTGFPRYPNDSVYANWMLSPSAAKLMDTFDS
assay-metric: IC50

substance_smiles=CC(C)(C)NS(=O)(=O)c1cncc(-c2ccn3nc(N)nc3c2)c1 value_observed="> 10 µM"

###

Measured IC50 by item
Biological target: Phosphatidylinositol 4,5-bisphosphate 3-kinase catalytic subunit delta isoform (Homo sapiens)
Sequence (O00329 whole entry, canonical isoform): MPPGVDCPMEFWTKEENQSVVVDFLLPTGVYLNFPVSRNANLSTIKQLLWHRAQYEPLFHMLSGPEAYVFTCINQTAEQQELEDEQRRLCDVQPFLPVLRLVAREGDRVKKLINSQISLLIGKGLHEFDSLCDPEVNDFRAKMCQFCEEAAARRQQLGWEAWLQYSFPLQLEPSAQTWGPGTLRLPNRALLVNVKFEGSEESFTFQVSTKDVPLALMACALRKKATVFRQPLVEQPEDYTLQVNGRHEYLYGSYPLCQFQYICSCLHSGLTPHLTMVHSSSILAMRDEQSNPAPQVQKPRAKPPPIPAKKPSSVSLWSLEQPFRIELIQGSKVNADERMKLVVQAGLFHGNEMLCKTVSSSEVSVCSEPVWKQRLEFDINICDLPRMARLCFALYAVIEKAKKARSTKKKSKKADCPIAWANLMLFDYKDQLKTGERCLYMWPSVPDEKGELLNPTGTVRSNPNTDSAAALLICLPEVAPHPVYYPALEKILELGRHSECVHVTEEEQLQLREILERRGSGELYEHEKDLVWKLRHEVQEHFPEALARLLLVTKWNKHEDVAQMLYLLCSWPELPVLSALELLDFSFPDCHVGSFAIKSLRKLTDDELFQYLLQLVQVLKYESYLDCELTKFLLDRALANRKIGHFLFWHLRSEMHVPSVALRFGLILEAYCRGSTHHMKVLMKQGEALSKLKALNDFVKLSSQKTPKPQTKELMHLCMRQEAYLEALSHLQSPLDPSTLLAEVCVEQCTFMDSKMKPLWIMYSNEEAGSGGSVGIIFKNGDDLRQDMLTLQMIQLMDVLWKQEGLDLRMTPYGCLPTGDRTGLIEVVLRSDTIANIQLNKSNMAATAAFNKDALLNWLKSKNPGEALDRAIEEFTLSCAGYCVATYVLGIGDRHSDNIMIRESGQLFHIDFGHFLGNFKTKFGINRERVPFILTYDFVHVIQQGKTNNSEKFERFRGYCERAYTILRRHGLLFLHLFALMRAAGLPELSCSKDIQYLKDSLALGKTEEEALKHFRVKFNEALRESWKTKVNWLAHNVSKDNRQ
Assay: Inhibition of PI3Kdelta assessed as change in pIC50 by kinobeads assay
assay-metric: IC50 (µM)

substance_smiles=CC(C)(C)NS(=O)(=O)c1cncc(-c2cc(F)c3nc(N)nn3c2)c1 quantity_unit=µM qualifier_symbol== value_observed=7.94
substance_smiles=CCCNS(=O)(=O)c1cncc(-c2ccn3nc(N)nc3c2)c1 quantity_unit=µM qualifier_symbol=< value_observed=20000

###

Target: Serine/threonine-protein kinase SIK3 (Homo sapiens)
assay-metric: IC50

substance_smiles=CC(C)(C)NS(=O)(=O)c1cncc(-c2ccn3nc(N)nc3c2)c1 assay_metric=IC50 value_observed="> 10 µM"

###

Target: Calcium/calmodulin-dependent protein kinase type IV (Homo sapiens)
Sequence (Q16566 whole entry): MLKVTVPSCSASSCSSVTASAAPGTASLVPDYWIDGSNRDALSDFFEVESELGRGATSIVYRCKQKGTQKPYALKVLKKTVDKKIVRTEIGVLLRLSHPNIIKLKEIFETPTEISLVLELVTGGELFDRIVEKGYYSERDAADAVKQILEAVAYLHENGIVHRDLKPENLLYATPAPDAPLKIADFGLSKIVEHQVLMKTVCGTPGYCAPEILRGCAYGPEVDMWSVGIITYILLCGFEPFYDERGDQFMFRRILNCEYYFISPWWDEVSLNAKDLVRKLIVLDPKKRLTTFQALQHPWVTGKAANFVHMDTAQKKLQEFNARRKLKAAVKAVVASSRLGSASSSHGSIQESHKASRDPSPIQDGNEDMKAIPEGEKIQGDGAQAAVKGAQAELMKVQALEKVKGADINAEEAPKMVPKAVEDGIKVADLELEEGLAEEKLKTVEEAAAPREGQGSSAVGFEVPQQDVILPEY
Assay: Inhibition of CAMK4
pIC50: −log10 of the molar value.
assay-metric: pIC50

substance_smiles=CC(C)(C)NS(=O)(=O)c1cncc(-c2ccn3nc(N)nc3c2)c1 value_observed="< 5.00"

###

Target: Activated CDC42 kinase 1 (Homo sapiens)
Test: Inhibition of TNK2
assay-metric: IC50

substance_smiles=CC(C)(C)NS(=O)(=O)c1cncc(-c2ccn3nc(N)nc3c2)c1 assay_metric=IC50 value_observed="> 10 µM"

###

Target: Serine/threonine-protein kinase mTOR (Homo sapiens)
assay-metric: IC50

substance_smiles=CC(C)(C)NS(=O)(=O)c1cncc(-c2ccn3nc(N)nc3c2)c1 assay_metric=IC50 value_observed="> 10 µM"

###

Biological target: Casein kinase I isoform epsilon (Homo sapiens, UniProt P49674)
Sequence (P49674 whole entry, canonical isoform): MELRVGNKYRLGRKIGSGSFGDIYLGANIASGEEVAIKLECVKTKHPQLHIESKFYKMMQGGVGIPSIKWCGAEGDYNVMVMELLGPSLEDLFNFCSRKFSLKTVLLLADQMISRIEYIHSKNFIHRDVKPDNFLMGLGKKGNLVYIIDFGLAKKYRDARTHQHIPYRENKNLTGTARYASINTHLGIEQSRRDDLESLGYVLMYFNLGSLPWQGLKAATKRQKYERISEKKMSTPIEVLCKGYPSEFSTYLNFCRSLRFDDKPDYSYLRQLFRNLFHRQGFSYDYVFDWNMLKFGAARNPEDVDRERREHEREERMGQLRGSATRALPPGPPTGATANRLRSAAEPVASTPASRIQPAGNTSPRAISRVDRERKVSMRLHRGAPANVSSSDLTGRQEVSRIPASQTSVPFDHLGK
Test: Inhibition of CSNK1E
assay-metric: IC50

substance_smiles=CC(C)(C)NS(=O)(=O)c1cncc(-c2ccn3nc(N)nc3c2)c1 value_observed="> 10 µM"

###

Biological target: Casein kinase I isoform alpha (Homo sapiens)
Sequence (P48729 whole entry, canonical isoform): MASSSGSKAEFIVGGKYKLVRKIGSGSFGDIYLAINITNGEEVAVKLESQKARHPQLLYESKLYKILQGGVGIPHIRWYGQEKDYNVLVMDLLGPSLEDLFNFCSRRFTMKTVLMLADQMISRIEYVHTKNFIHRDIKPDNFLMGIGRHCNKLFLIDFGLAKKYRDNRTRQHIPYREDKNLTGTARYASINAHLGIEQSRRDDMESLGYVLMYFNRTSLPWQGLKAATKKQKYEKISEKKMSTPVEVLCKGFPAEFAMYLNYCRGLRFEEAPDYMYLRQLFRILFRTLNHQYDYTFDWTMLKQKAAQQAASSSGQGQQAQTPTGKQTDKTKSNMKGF
Experiment: Inhibition of CSNK1A1
assay-metric: IC50 (µM)

substance_smiles=CC(C)(C)NS(=O)(=O)c1cncc(-c2ccn3nc(N)nc3c2)c1 assayed_target="Casein kinase I isoform alpha (Homo sapiens)" assay_metric=IC50 quantity_unit=µM value_observed=9.12

###

Biological target: Mitogen-activated protein kinase kinase kinase kinase 1 (Homo sapiens)
Sequence (Q92918 whole entry): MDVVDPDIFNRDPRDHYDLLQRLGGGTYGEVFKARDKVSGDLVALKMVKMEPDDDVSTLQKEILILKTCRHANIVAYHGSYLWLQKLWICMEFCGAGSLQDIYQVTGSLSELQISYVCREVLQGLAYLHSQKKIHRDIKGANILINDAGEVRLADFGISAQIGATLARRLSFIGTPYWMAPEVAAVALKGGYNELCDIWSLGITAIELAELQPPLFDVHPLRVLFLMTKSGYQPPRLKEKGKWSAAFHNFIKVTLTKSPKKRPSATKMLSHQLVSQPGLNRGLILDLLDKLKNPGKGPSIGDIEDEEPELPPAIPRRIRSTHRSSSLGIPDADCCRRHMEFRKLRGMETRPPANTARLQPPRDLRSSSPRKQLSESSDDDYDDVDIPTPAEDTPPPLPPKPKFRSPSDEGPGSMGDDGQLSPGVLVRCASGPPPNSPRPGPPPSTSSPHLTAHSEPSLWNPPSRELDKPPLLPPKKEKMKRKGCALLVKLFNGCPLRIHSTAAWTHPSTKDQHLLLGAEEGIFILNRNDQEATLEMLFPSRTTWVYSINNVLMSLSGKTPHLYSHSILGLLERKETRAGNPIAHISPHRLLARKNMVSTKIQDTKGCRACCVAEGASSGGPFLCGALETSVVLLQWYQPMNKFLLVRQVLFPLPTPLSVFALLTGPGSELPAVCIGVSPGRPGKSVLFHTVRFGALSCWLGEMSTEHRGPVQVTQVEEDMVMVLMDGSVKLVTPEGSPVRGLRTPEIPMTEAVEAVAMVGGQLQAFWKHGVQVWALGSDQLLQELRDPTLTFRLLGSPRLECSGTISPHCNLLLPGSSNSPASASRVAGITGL
Experiment: Inhibition of MAP4K1
assay-metric: IC50

substance_smiles=CC(C)(C)NS(=O)(=O)c1cncc(-c2ccn3nc(N)nc3c2)c1 assay_metric=IC50 value_observed="> 10 µM"

###

Target: Interleukin-1 receptor-associated kinase 1 (Homo sapiens)
Sequence (P51617 whole entry): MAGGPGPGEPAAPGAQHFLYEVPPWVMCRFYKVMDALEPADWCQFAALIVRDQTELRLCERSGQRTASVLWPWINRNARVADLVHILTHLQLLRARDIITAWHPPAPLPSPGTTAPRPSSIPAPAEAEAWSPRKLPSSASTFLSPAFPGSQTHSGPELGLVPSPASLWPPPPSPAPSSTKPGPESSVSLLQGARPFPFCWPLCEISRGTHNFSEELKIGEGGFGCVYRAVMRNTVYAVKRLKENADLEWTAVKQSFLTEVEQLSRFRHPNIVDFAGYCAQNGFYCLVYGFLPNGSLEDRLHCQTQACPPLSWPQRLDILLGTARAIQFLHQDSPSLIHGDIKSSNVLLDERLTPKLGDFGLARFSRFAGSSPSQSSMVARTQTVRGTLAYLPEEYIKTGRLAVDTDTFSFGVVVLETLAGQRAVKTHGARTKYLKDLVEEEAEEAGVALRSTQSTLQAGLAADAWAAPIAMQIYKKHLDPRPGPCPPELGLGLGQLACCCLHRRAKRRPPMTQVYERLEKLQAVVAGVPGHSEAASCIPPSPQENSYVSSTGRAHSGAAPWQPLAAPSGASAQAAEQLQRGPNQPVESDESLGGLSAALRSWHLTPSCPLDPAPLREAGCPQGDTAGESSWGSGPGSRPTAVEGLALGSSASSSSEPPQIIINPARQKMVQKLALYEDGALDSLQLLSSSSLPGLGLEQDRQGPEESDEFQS
pIC50: −log10 of the molar value.
assay-metric: pIC50

substance_smiles=CC(C)(C)NS(=O)(=O)c1cncc(-c2ccn3nc(N)nc3c2)c1 assayed_target="Interleukin-1 receptor-associated kinase 1 (Homo sapiens)" value_observed="< 5.00"

###

Target: Phosphatidylinositol 4,5-bisphosphate 3-kinase catalytic subunit delta isoform/gamma isoform (Homo sapiens, UniProt P48736+O00329)
Assay: Inhibition of PI3Kgamma/delta by neutrophil migration assay
Measured pIC50 by item
assay-metric: pIC50

substance_smiles=CC1(C)CCN1S(=O)(=O)c1cncc(-c2ccn3nc(N)nc3c2)c1 assay_metric=pIC50 value_observed=5.7
substance_smiles=Nc1nc2cc(-c3cncc(S(=O)(=O)NCC(F)(F)F)c3)ccn2n1 assay_metric=pIC50 value_observed=5.9
substance_smiles=CC(C)(NS(=O)(=O)c1cncc(-c2ccn3nc(N)nc3c2)c1)C(F)(F)F assay_metric=pIC50 value_observed=5.6
substance_smiles=Nc1nc2cc(-c3cncc(S(=O)(=O)Nc4ccccc4)c3)ccn2n1 assay_metric=pIC50 value_observed=5
substance_smiles=Nc1nc2cc(-c3cncc(S(N)(=O)=O)c3)ccn2n1 assay_metric=pIC50 value_observed=6.1
substance_smiles=CC(C)NS(=O)(=O)c1cncc(-c2ccn3nc(N)nc3c2)c1 assay_metric=pIC50 value_observed=6.3
substance_smiles=CNS(=O)(=O)c1cncc(-c2ccn3nc(N)nc3c2)c1 assay_metric=pIC50 value_observed=6.3
substance_smiles=CC(C)(C)NS(=O)(=O)c1cncc(-c2cc(F)n3nc(N)nc3c2)c1 assay_metric=pIC50 value_observed=6.1
substance_smiles=CCN(CC)S(=O)(=O)c1cncc(-c2ccn3nc(N)nc3c2)c1 assay_metric=pIC50 value_observed=5.9
substance_smiles=CCCNS(=O)(=O)c1cncc(-c2ccn3nc(N)nc3c2)c1 assay_metric=pIC50 value_observed=6.2
substance_smiles=CC(C)(C)NS(=O)(=O)c1cncc(-c2ccn3nc(N)nc3c2)c1 assay_metric=pIC50 value_observed=6.3

Data credit: ChEMBL document CHEMBL2203257
